// provenance: paper PMC6017735

molecular target: Tdp1 (Homo sapiens, UniProt Q9NUW8); construct: inferred from the pET 16B vector and the Ni-chelating resin) (N); made in house; test: Real-time detection of Tdp1 activity with FAM-BHQ1 oligonucleotide biosensor; type: biochemical; details: commercial sample of compound 1b (virtual screening hit); read-out: IC50
Sequence (Q9NUW8 whole entry): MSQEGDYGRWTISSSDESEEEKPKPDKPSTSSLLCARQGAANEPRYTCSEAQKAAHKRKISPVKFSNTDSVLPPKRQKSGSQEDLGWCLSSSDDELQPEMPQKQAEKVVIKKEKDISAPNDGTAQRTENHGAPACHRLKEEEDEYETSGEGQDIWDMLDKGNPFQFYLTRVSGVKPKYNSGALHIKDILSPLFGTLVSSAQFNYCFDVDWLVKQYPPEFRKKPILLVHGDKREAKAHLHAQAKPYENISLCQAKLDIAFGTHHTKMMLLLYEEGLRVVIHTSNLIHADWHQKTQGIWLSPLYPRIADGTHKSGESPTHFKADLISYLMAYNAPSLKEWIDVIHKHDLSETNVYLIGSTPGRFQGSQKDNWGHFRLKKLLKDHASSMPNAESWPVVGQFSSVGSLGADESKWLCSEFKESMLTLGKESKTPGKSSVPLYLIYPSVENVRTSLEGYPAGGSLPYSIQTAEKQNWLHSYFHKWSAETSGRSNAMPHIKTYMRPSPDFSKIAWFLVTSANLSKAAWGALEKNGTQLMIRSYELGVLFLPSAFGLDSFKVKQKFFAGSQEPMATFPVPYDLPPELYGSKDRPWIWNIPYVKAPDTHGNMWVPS
Parameter: pIC50
Give bare numbers, as −log10 of the molar value.

Item: CC(CCC(=O)NCCc1c[nH]c2ccccc12)C1CCC2C3C(O)CC4CC(O)CCC4(C)C3CCC12C (stereo not shown) | pIC50: 6.52

###

Kindly supply the reported IC50 values for the records listed here.
molecular target: Tdp1 (Homo sapiens); construct: inferred from the pET 16B vector and the Ni-chelating resin) (N); made in house; experiment: Real-time detection of Tdp1 activity with FAM-BHQ1 oligonucleotide biosensor; type: biochemical; details: IC50 (concentration that inhibits the activity of the enzyme by 50%), samples synthesized by the authors; 50 nM biosensor, 1.3 nM Tdp1, 26 °C
One number for each entry, in nM.

These recorded examples may help you get a feel for the data.
CC(=O)OC1CCC2(C)C(C1)CC(OC(C)=O)C1C2CCC2(C)C(C(C)CCC(=O)NCCc3c[nH]c4ccccc34)CCC12 (centres unmarked) [Compound 1a]: 320
Cc1ccc(NC(=O)CC[C@@H](C)[C@H]2CC[C@H]3[C@@H]4CC[C@@H]5C[C@H](O)CC[C@]5(C)[C@H]4C[C@H](O)[C@]23C)cc1: 7600

Here are 2 compounds. What values of IC50 were reported for them?
1. CC(CCC(=O)NCCc1c[nH]c2ccccc12)C1CCC2C3C(O)CC4CC(O)CCC4(C)C3CCC12C (centres unmarked)
2. CC(CCC(=O)NCCc1c[nH]c2ccccc12)C1CCC2C3CCC4CC(O)CCC4(C)C3CC(O)C12C (centres unmarked)

Reply text:
1. 2650
2. 2700

###

molecular target: Tdp1 (Homo sapiens, UniProt Q9NUW8); construct: inferred from the pET 16B vector and the Ni-chelating resin) (N); made in house; assay: Real-time detection of Tdp1 activity with FAM-BHQ1 oligonucleotide biosensor; assay type: biochemical; details: IC50 (concentration that inhibits the activity of the enzyme by 50%), samples synthesized by the authors; 50 nM biosensor, 1.3 nM Tdp1, 26 °C
Parameter: IC50 (µM)
Give bare numbers, in µM.

CC(=O)O[C@@H]1CC[C@@]2(C)[C@H](CC[C@@H]3[C@@H]2C[C@H](OC(C)=O)[C@]2(C)[C@@H]([C@H](C)CCC(=O)Nc4ccc(Br)cc4)CC[C@@H]32)C1: 0.42
CC(=O)O[C@@H]1CC[C@@]2(C)[C@H](CC[C@@H]3[C@@H]2C[C@H](OC(C)=O)[C@]2(C)[C@@H]([C@H](C)CCC(=O)Nc4cccnc4)CC[C@@H]32)C1: 4.08
CC(=O)O[C@@H]1CC[C@@]2(C)[C@H](CC[C@@H]3[C@@H]2C[C@H](OC(C)=O)[C@]2(C)[C@@H]([C@H](C)CCC(=O)Nc4ccc(C)cc4)CC[C@@H]32)C1: 1
CC(=O)OC1CCC2(C)C(CCC3C2CC(O)C2(C)C(C(C)CCC(=O)NCCc4c[nH]c5ccccc45)CCC32)C1 (stereo not shown): 0.48
C[C@H](CCC(=O)Nc1ccc(Br)cc1)[C@H]1CC[C@H]2[C@@H]3CC[C@@H]4C[C@H](O)CC[C@]4(C)[C@H]3C[C@H](O)[C@]12C: 1.3
C[C@H](CCC(=O)Nc1ccccc1)[C@H]1CC[C@H]2[C@@H]3CC[C@@H]4C[C@H](O)CC[C@]4(C)[C@H]3C[C@H](O)[C@]12C: 6.7

Hello, I would appreciate it if you could give IC50 for each entry below.
1. CC(=O)OC1CCC2(C)C(CCC3C2CC(OC(C)=O)C2(C)C(C(C)CCC(=O)NCCc4cc(C(C)(C)C)c(O)c(C(C)(C)C)c4)CCC32)C1 (stereo not shown)
2. CC(=O)O[C@@H]1CC[C@]2(C)C3C[C@H](OC(C)=O)[C@@]4(C)C(CC[C@@H]4[C@H](C)CCC(=O)NC45CC6CC(CC(C6)C4)C5)[C@@H]3CC[C@@H]2C1 (stereo partly shown)
3. CC(=O)O[C@@H]1CC[C@@]2(C)[C@H](CC[C@@H]3[C@@H]2C[C@H](OC(C)=O)[C@]2(C)[C@@H]([C@H](C)CCC(=O)Nc4ccccc4)CC[C@@H]32)C1
4. C[C@H](CCC(=O)NC12CC3CC(CC(C3)C1)C2)[C@H]1CCC2[C@@H]3CC[C@@H]4C[C@H](O)CC[C@]4(C)C3C[C@H](O)[C@@]21C (stereo partly shown)
5. CC(=O)OC1CCC2(C)C(CCC3C2CC(OC(C)=O)C2(C)C(C(C)CCC(=O)NCCc4c[nH]c5ccccc45)CCC32)C1 (stereo not shown)
6. CC(=O)OC1CCC2(C)C(C1)CC(OC(C)=O)C1C2CCC2(C)C(C(C)CCC(=O)NCCc3c[nH]c4ccccc34)CCC12 (stereo not shown) [Compound 2a]
7. CC(=O)OC1CC2C(CCC3CC(O)CCC32C)C2CCC(C(C)CCC(=O)NCCc3c[nH]c4ccccc34)C12C (stereo not shown)

Reply text:
1: 0.29; 2: 0.47; 3: 0.43; 4: 2.3; 5: 0.65; 6: 0.38; 7: 0.95

###

molecular target: Tdp1 (Homo sapiens); construct: inferred from the pET 16B vector and the Ni-chelating resin) (N); made in house; test: Real-time detection of Tdp1 activity with FAM-BHQ1 oligonucleotide biosensor; assay type: biochemical; conditions: IC50 (concentration that inhibits the activity of the enzyme by 50%), samples synthesized by the authors; 50 nM biosensor, 1.3 nM Tdp1, 26 °C
pIC50: −log10 of the molar value.
So I've got a bunch of compounds here, and I need their pIC50 values.

CCN(CC)CCCNC(=O)CC[C@@H](C)[C@H]1CCC2[C@@H]3CC[C@@H]4C[C@H](OC(C)=O)CC[C@]4(C)C3C[C@H](OC(C)=O)[C@@]21C (stereo partly drawn) [Compound 10a]: < 4.82
CC(=O)O[C@@H]1CC[C@@]2(C)[C@H](CC[C@@H]3[C@@H]2C[C@H](OC(C)=O)[C@]2(C)[C@@H]([C@H](C)CCC(=O)NCCCN4CCOCC4)CC[C@@H]32)C1 [Compound 11a]: < 4.82

Now for the compound whose pIC50 we want.
Reported pIC50 for "C[C@H](CCC(=O)Nc1cccnc1)[C@H]1CC[C@H]2[C@@H]3CC[C@@H]4C[C@H](O)CC[C@]4(C)[C@H]3C[C@H](O)[C@]12C" was < 4.82
